meta.source: the emibetuzumab library of Makowski et al. (2022)

B1: VH:VL chains; a variant is named by its letters at X, in order (parent)
chain 1: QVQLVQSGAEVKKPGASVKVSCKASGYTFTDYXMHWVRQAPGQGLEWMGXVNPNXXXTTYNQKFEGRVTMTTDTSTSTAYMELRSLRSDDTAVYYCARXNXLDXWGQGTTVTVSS
chain 2: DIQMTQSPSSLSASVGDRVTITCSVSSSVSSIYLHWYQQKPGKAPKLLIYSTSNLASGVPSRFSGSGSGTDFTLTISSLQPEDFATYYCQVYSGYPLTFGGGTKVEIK

Variants of: B1
test.protocol: yeast display scFab, FACS + sequencing
measurement.context: with MET
The list shows a part of the results. The hit rate among all sequences tested is not known here.

sequence.change: YRRRGASD
antigen binding call: binds

sequence.change: VAGTGDWV
antigen binding call: no binding

sequence.change: FKGRGSLA
antigen binding call: binds

sequence.change: DAGKGAVV
antigen binding call: no binding

sequence.change: YRRGGALV
antigen binding call: binds

sequence.change: VEAGDAAV
antigen binding call: no binding

sequence.change: VEEEGALD
antigen binding call: no binding

sequence.change: DTKAASSS
antigen binding call: no binding

sequence.change: YKGGDDLA
antigen binding call: no binding

sequence.change: FRREGSSD
antigen binding call: no binding

sequence.change: ARRGGSGS
antigen binding call: no binding

sequence.change: DTKRTAVA
antigen binding call: no binding

sequence.change: DKAKGDGS
antigen binding call: no binding

sequence.change: DGGTNSSA
antigen binding call: no binding

sequence.change: YRARSSGA
antigen binding call: binds

sequence.change: YAGRGDLA
antigen binding call: no binding

sequence.change: FRRRGSSD
antigen binding call: binds

sequence.change: YRKGSSGF
antigen binding call: binds

sequence.change: SAARDAVA
antigen binding call: no binding

sequence.change: DRAGDSGA
antigen binding call: no binding

sequence.change: VRRGGSGS
antigen binding call: binds

sequence.change: YRGKDSGA
antigen binding call: binds

sequence.change: VETEGAVY
antigen binding call: no binding

sequence.change: SKTKSDAV
antigen binding call: no binding

sequence.change: YKGKGSLA
antigen binding call: binds

sequence.change: DGGTGDVF
antigen binding call: no binding

sequence.change: YRGGGFAD
antigen binding call: binds

sequence.change: VRGRDYGD
antigen binding call: no binding

sequence.change: YRGKDAGA
antigen binding call: binds

sequence.change: SKAKGAWS
antigen binding call: binds

sequence.change: YRGRGFAS
antigen binding call: binds

sequence.change: YRTRAAWD
antigen binding call: binds

sequence.change: DAGAADGA
antigen binding call: no binding

sequence.change: YTKRSAVV
antigen binding call: no binding

sequence.change: VRRETVSD
antigen binding call: no binding

sequence.change: VTERSALD
antigen binding call: no binding

sequence.change: YRKGSSLF
antigen binding call: binds

sequence.change: YRGGDYGA
antigen binding call: no binding

sequence.change: DTGEADAS
antigen binding call: no binding

sequence.change: YAGRAAWD
antigen binding call: no binding

sequence.change: VRRGGALD
antigen binding call: binds

sequence.change: VEEEGDAA
antigen binding call: no binding

sequence.change: VGGKNSVD
antigen binding call: no binding

sequence.change: FRGRGSAF
antigen binding call: binds

sequence.change: DARGGDAA
antigen binding call: no binding

sequence.change: VAGRSDLV chain 1 R67H
antigen binding call: no binding

sequence.change: YKAGGFGA
antigen binding call: no binding

sequence.change: YAGRSFGS
antigen binding call: no binding

sequence.change: YTGTSAVV
antigen binding call: no binding

sequence.change: DEAGDAVV
antigen binding call: no binding

sequence.change: DAEESDGA
antigen binding call: no binding

sequence.change: DRAGDDSA
antigen binding call: no binding

sequence.change: FRGRSSAF
antigen binding call: binds

sequence.change: VAGRSFGS
antigen binding call: no binding

sequence.change: FRTRGSSD
antigen binding call: binds

sequence.change: YRGRGFAD
antigen binding call: binds

sequence.change: YRGRGYAY
antigen binding call: binds

sequence.change: YAAAAFGY
antigen binding call: no binding

sequence.change: YKGKGFGA
antigen binding call: no binding

sequence.change: YRAGASLA
antigen binding call: binds

sequence.change: VRGRSSGS
antigen binding call: binds

sequence.change: VRAGDSLS
antigen binding call: no binding

sequence.change: SKRETAWS
antigen binding call: binds

sequence.change: YRKGGAVV
antigen binding call: binds

sequence.change: VGGTSALD
antigen binding call: no binding

sequence.change: YAGRGFGF
antigen binding call: no binding

sequence.change: YRAGGDSA
antigen binding call: binds

sequence.change: YRRKGASV
antigen binding call: binds

sequence.change: VKRRDSGD
antigen binding call: no binding

sequence.change: YRGRGFGY
antigen binding call: binds

sequence.change: SAAGSVWY
antigen binding call: no binding

sequence.change: YKGRGSLA
antigen binding call: binds

sequence.change: STAEDFVV
antigen binding call: no binding

sequence.change: FKEGGSAA
antigen binding call: no binding

sequence.change: YRKGAAVV
antigen binding call: binds

sequence.change: VRKRGALD
antigen binding call: binds

sequence.change: AGETGFSA
antigen binding call: no binding

sequence.change: YRRGGAVS
antigen binding call: binds

sequence.change: DRAGDAGA
antigen binding call: no binding

sequence.change: YRTRSAGD
antigen binding call: binds

sequence.change: VKRGSSGD
antigen binding call: binds

sequence.change: DGGKNDGD
antigen binding call: no binding

sequence.change: YRGRSAWD
antigen binding call: binds

sequence.change: YRRRGYSD
antigen binding call: no binding

sequence.change: ARAETDVY
antigen binding call: no binding

sequence.change: SEARSDWD
antigen binding call: no binding

sequence.change: VRRAADSD
antigen binding call: no binding

sequence.change: VAGTGDWF
antigen binding call: no binding

sequence.change: VERGGFGS
antigen binding call: no binding

sequence.change: YRTRSAWD
antigen binding call: binds

sequence.change: YRRRGSSD
antigen binding call: binds
